- Test method notes: Pseudomonas biofilm growth suppression – PAO1 strain, BacTiter-Glo luminescence, LB-PBS, primary screen (AID 1144)
- Condition details: P. aeruginosa PAO1 biofilm, 12 h, higher = more signal
Label rule, in plain words: z-score of -0.7 and up is T, under -0.7 is F.

Field: example entries. Status: answers known.
1) COC(=O)C(CC#Cc1ccc2c(c1)[C@]1(C(=O)N2)[C@H](C(=O)NC[C@H](O)c2ccccc2)[C@H]2C(=O)O[C@H](c3ccccc3)[C@H](c3ccccc3)N2[C@@H]1c1ccccc1OCCO)C(=O)OC = F
2) CCC(CC)C(O)C1C=CC2C(=O)N(c3ccccc3)C(=O)C2N1Nc1ccccc1F (configuration not stated) = T
3) COc1cc(OC)c(C(O)C2C=CC3C(=O)N(c4ccccc4)C(=O)C3N2Nc2ccc(C(C)C)cc2)cc1Br (configuration not stated) = F
4) Cc1ccc(S[C@]2(C(=O)NCCCN(C)C)CC(=O)N(Cc3ccccc3C(F)(F)F)[C@@H]2c2ccc(CO)cc2I)cc1 = T
5) CC1CC/C=C\[C@H]2OC34C=CCN(c5ccc(Cl)cc5)C(=O)[C@H]3N(CCCCCCO)C(=O)[C@]4(C)C2C(=O)O1 (some centres not stated) = T

Now look at this one.
Identify whether the reported z-score of the following compound is -0.7 or greater: `O=C(NCc1ccc(F)cc1)[C@H]1C[C@H]2C(=O)N3CCC[C@H]3C(=O)N2[C@H]1c1ccc(O)cc1`
T
